As shown below, each of these molecules has a reported melting point value.

[
  {
    "Molecule": "CCOC(=O)C(=NOCC(N)=O)c1csc(NC(c2ccccc2)(c2ccccc2)c2ccccc2)n1",
    "melting point": "180 °C"
  },
  {
    "Molecule": "Cc1cccc(-c2n[nH]cc2-c2ccc(F)c(-c3c[nH]c(CCO)n3)c2)n1",
    "melting point": "219 to 220 °C"
  },
  {
    "Molecule": "CC(=O)Nc1nc(-c2ccc(F)cc2)c(-c2ccc(=O)n(C(C)C)n2)s1",
    "melting point": "236 to 238 °C"
  },
  {
    "Molecule": "COCC1CN(c2ccc3ccc(N)cc3c2)C(=O)O1 (stereo not given)",
    "melting point": "98 to 99 °C"
  },
  {
    "Molecule": "Nc1ccc2c(c1)CNC2",
    "melting point": "113 to 119 °C"
  },
  {
    "Molecule": "N#Cc1ccc(NC2CCN(Cc3cccc(C(F)(F)F)c3)CC2)nc1",
    "melting point": "112 °C"
  },
  {
    "Molecule": "CC(C)(C)c1cc(CS[C@@H]2CCCC[C@H]2SCc2cc(C(C)(C)C)cc(C(C)(C)C)c2O)c(O)c(C(C)(C)C)c1 (relative stereo)",
    "melting point": "104 to 106 °C"
  },
  {
    "Molecule": "COC(=O)c1c(OC)cc(C=O)cc1OC",
    "melting point": "113 to 114 °C"
  },
  {
    "Molecule": "OCc1cccc(/C=C/c2ccc3ccc(Cl)cc3n2)c1",
    "melting point": "141 °C"
  },
  {
    "Molecule": "COC(=O)C1=C(C)Nc2c(c(C)nn2C)C1c1ccccc1[N+](=O)[O-] (stereo not given)",
    "melting point": "216 to 220 °C"
  },
  {
    "Molecule": "COc1ccc(C2(O)C(=O)Nc3ccc(Cl)cc32)cc1 (stereo not given)",
    "melting point": "202 °C"
  },
  {
    "Molecule": "C[C@H](c1ccccc1)n1c(=O)c2c(N3CCN(C)CC3)cc(Cl)cc2n(Cc2ccccc2)c1=O",
    "melting point": "108 to 115 °C"
  },
  {
    "Molecule": "Cc1c(F)c(N2CCC(n3cc(-c4ccccc4)nn3)C2)c(F)c2c1c(=O)c(C(=O)O)cn2C1CC1 (stereo not given)",
    "melting point": "221 °C"
  },
  {
    "Molecule": "Clc1ccc(C2(Cn3cncn3)OC2c2ccc(Cl)cc2Cl)cc1 (stereo not given)",
    "melting point": "119 °C"
  },
  {
    "Molecule": "COc1cc(OC)c2c(C)c3n(c(=O)c2c1)CCCC3",
    "melting point": "165 to 168 °C"
  },
  {
    "Molecule": "CCCCC(CC)Cn1c(O)c(N=Nc2ccc(S(=O)(=O)N(CCO)CCO)cc2)c(C)c(C#N)c1=O (stereo not given)",
    "melting point": "189 to 190 °C"
  },
  {
    "Molecule": "CCOC(=O)c1cc(-c2ccc(OC)cc2)nn(CC=Cc2ccc(Cl)cc2)c1=O",
    "melting point": "127 to 128 °C"
  },
  {
    "Molecule": "Cc1cccc(C)c1NCC(C)Nc1c(C)cccc1C (stereo not given)",
    "melting point": "52 to 55 °C"
  },
  {
    "Molecule": "Cn1nnnc1-c1cn(C)c2cc(N3CCCCC3)ccc2c1=O",
    "melting point": "180 to 183 °C"
  },
  {
    "Molecule": "COc1cccc2c1C(CN1CC=C(c3c[nH]c4cc(Cl)ccc34)CC1)CC2 (stereo not given)",
    "melting point": "177 to 178 °C"
  },
  {
    "Molecule": "Cc1cc(C2=NNC(C)Cc3cc4c(cc32)OCO4)ccc1[N+](=O)[O-] (stereo not given)",
    "melting point": "144 to 147 °C"
  },
  {
    "Molecule": "O=C(NC(=O)c1c(Cl)cccc1Cl)Nc1ccc(OC(F)(F)C(Cl)Cl)cc1",
    "melting point": "211 to 213 °C"
  },
  {
    "Molecule": "CCN(C)C(N)=C(C#N)C#N",
    "melting point": "140 to 141 °C"
  },
  {
    "Molecule": "CN(C)CCOc1ccc(CNC(=O)c2ccccc2N)cc1",
    "melting point": "104 to 105 °C"
  },
  {
    "Molecule": "Cc1cccc2[nH]c(Nc3ccc(CC(=O)O)cc3)nc12",
    "melting point": "385 to 387 °C"
  },
  {
    "Molecule": "CSc1nc(N)n2nc(-c3ccco3)nc2n1",
    "melting point": "238 to 240 °C"
  },
  {
    "Molecule": "COc1cccc2c1CCC21NC(=O)c2ccccc21 (stereo not given)",
    "melting point": "222 to 224 °C"
  },
  {
    "Molecule": "Cn1ccc(C(=O)c2sc(NC(=O)c3ccncc3)nc2-c2ccco2)c1",
    "melting point": "209 to 211 °C"
  },
  {
    "Molecule": "COc1ccc(-c2nc(-c3ccc(Br)cc3)sc2-c2ccc(OC)cc2)cc1",
    "melting point": "155 to 157 °C"
  },
  {
    "Molecule": "O=C(O)c1cccc(-c2cccc(OCCc3cccc(F)c3)n2)c1",
    "melting point": "142 to 143 °C"
  }
]

---

As shown below, each of these molecules has a reported melting point value.
Property: melting point

[
  {
    "Molecule": "N#Cc1cc(N2C=CN=CC2)c[nH]c1=O",
    "Result": "> 250 °C"
  },
  {
    "Molecule": "O=C(O)CN1C(=O)C(=Cc2ccc(OCCc3ccc(F)cc3)c(OCc3ccccc3)c2)SC1=S",
    "Result": "221 °C"
  },
  {
    "Molecule": "C=C(C)C(=O)CCCCCCOc1ccc(C(=O)O)cc1",
    "Result": "81 to 94 °C"
  },
  {
    "Molecule": "CS(=O)(=O)NC(=O)/C(C#N)=C/c1cn(-c2cc(C(F)(F)F)cc(C(F)(F)F)c2)nc1-c1cccc(Cl)c1",
    "Result": "273 to 275 °C"
  },
  {
    "Molecule": "N#CCCN(C(N)=O)C1CCCCC1",
    "Result": "110 to 112 °C"
  },
  {
    "Molecule": "CC[C@@H]1O[C@](/C=C/C2CC2)(C(F)(F)F)c2cc(Cl)ccc2NC1=O (relative stereo)",
    "Result": "147 to 148 °C"
  },
  {
    "Molecule": "Cc1cccc2c1C(=O)N1CC[C@H]1C(=O)N2",
    "Result": "159 to 160 °C"
  },
  {
    "Molecule": "O=C(Nc1ccc(C(=O)N2Cc3ccccc3Cc3ccccc32)cn1)c1ccccc1-c1ccccc1",
    "Result": "134 to 142 °C"
  },
  {
    "Molecule": "CCN1CCC(=O)C(C(c2ccccc2)c2ccccc2)C1 (configuration not stated)",
    "Result": "54 to 58 °C"
  },
  {
    "Molecule": "COc1ccc(N2C(=O)N(c3cccc(C#N)c3)c3nc(Nc4cccc(CCOC(C)=O)c4)ncc3C2C)cc1 (configuration not stated)",
    "Result": "170 to 172 °C"
  },
  {
    "Molecule": "Nc1nnc2c3c(c(Cl)nn12)CCCC3",
    "Result": "224 to 225 °C"
  },
  {
    "Molecule": "Cc1ccccc1CCNC(=O)c1c(Cl)ccc2nc(N3CCC(C(=O)O)CC3)ccc12",
    "Result": "237 to 241 °C"
  },
  {
    "Molecule": "CCSc1cccc(OC(F)(F)F)c1S(N)(=O)=O",
    "Result": "146 °C"
  },
  {
    "Molecule": "OCc1ccc(-c2ccc3nnn(Cc4ccc5ncccc5c4)c3n2)cc1",
    "Result": "187 to 189 °C"
  },
  {
    "Molecule": "CN(CCCC(C(N)=O)(c1ccccc1)c1ccccc1)CCc1ccccn1",
    "Result": "134 to 136 °C"
  },
  {
    "Molecule": "Oc1ccc2c(c1)CCCC(c1ccccc1)=C2c1ccc(OCCCl)cc1",
    "Result": "238 to 240 °C"
  },
  {
    "Molecule": "O=C(O)c1cc([N+](=O)[O-])ccc1Nc1ccc(CCc2ccc(Cl)c(Cl)c2)cc1",
    "Result": "214 to 217 °C"
  },
  {
    "Molecule": "Clc1nc2c([nH]1)CCCCC2",
    "Result": "214 to 215 °C"
  },
  {
    "Molecule": "COCCOc1cc(NC(=O)OC(C)(C)C)c(NC(=O)CC(=O)c2cccc(-n3ccnc3)c2)cc1C#Cc1ccccc1",
    "Result": "122 to 129 °C"
  },
  {
    "Molecule": "CCOC(OCC)C(C#N)(C=O)Cc1cc(OC)c(OC)c(OC)c1 (configuration not stated)",
    "Result": "109 to 115 °C"
  },
  {
    "Molecule": "Cc1ccc(-c2nc(C(F)(F)F)nc(NN)c2-c2ccccc2)cc1",
    "Result": "188 to 191 °C"
  },
  {
    "Molecule": "CCSC(=O)c1c(C(F)(F)F)nc(C(F)F)c(C(=O)OC)c1NC(C)C",
    "Result": "56 to 59 °C"
  }
]
